Answer each item with its documented ratio of IC50 for cells with mutant EGFR to IC50 for cells with wildtype EGFR (Mut/WT).
molecular target: EGFR Ex19del (Homo sapiens, UniProt P00533, DEL746-750); construct: expressed in transfected cells; host or cells: Ba/F3 cells, retroviral pBabe-Puro vector; test: Ba/F3 drug screening, Cell Titer Glo, IC50 Mut/WT; type: cell-based; settings: Classical-Like, 72 hours
Just the number, please.

Kindly note the recorded ratio of IC50 for cells with mutant EGFR to IC50 for cells with wildtype EGFR (Mut/WT) for COc1cc2ncnc(Nc3ccc(F)c(Cl)c3)c2cc1NC(=O)/C=C/CN1CCCCC1 [Dacomitinib] , which is 0.005832

Record C=CC(=O)Nc1cccc(Oc2nc(Nc3ccc(N4CCN(C)CC4)cc3)nc3ccsc23)c1 [Olmutinib] , field ratio of IC50 for cells with mutant EGFR to IC50 for cells with wildtype EGFR (Mut/WT): 0.0008432

Summary for this compound, C=CC(=O)N[C@H]1C=C(C)c2c(-c3cnc4ccccc4c3)c3c(N)ncnc3n2C1 [TAS 6417] : ratio of IC50 for cells with mutant EGFR to IC50 for cells with wildtype EGFR (Mut/WT) is 0.00149

Note to self: ratio of IC50 for cells with mutant EGFR to IC50 for cells with wildtype EGFR (Mut/WT) recorded for COc1cc2ncnc(Nc3cccc(Cl)c3F)c2cc1OC(=O)N1CCN(C)C[C@H]1C [AZD3759] was 0.0001195

Noted for C=CC(=O)Nc1cc(Nc2ncc(C(=O)OC(C)C)c(-c3cn(C)c4ccccc34)n2)c(OC)cc1N(C)CCN(C)C [TAK-788 (mobocertinib), mobocertinib] : its ratio of IC50 for cells with mutant EGFR to IC50 for cells with wildtype EGFR (Mut/WT) reads 0.02859

Looking up C=CC(=O)N1CC[C@@H](Oc2nc(Nc3ccc(N4CCC(N5CCN(C)CC5)CC4)cc3)c(C(N)=O)nc2CC)C1 [Naquotinib] , I found its ratio of IC50 for cells with mutant EGFR to IC50 for cells with wildtype EGFR (Mut/WT) recorded as 0.006035

Input CNC(=O)CN1CCC(Oc2cc3c(Nc4cccc(Cl)c4F)ncnc3cc2OC)CC1 [Sapatinib] . Output ratio of IC50 for cells with mutant EGFR to IC50 for cells with wildtype EGFR (Mut/WT): 0.0005535

* * *

target: EGFR L861R (Homo sapiens, UniProt P00533, L861R); construct: expressed in transfected cells; host or cells: Ba/F3 cells, retroviral pBabe-Puro vector (vector made by GeneScript from EGFR WT); test: Ba/F3 drug screening, Cell Titer Glo, IC50 Mut/WT; assay type: cell-based; details: Classical-Like, 72 hours
parameter: ratio of IC50 for cells with mutant EGFR to IC50 for cells with wildtype EGFR (Mut/WT)
Form rule: numeric answer, no unit written next to it.

Documented ratio of IC50 for cells with mutant EGFR to IC50 for cells with wildtype EGFR (Mut/WT) of CNC(=O)CN1CCC(Oc2cc3c(Nc4cccc(Cl)c4F)ncnc3cc2OC)CC1 : 0.002811

Short answer for C=CC(=O)Nc1cc(Nc2nccc(-c3c[nH]c4ccccc34)n2)c(OC)cc1N(C)CCN(C)C : ratio of IC50 for cells with mutant EGFR to IC50 for cells with wildtype EGFR (Mut/WT) was 0.2335

For Cc1cc(C(=O)Nc2nc3cccc(Cl)c3n2[C@@H]2CCCCN(C(=O)/C=C/CN(C)C)C2)ccn1 the compound record lists ratio of IC50 for cells with mutant EGFR to IC50 for cells with wildtype EGFR (Mut/WT) as 0.01121

Record CN(C)C/C=C/C(=O)Nc1cc2c(Nc3ccc(Cl)c(Br)c3)ncnc2cn1 . Reported ratio of IC50 for cells with mutant EGFR to IC50 for cells with wildtype EGFR (Mut/WT): 0.01926
